- MEASURED TARGET: Lysosomal acid glucosylceramidase (Homo sapiens)
- ASSAY PROCEDURE: Inhibition of recombinant beta-glucocerebrosidase after 10 mins by fluorimetry
ASSAY METRIC: IC50 (µM)

SMILES REPR: CCCOCCCCCCn1cc(CN[C@H]2[C@H](O)[C@@H](O)[C@H](O)[C@@H](O)[C@@H]2O)nn1
MEASURED TARGET: Lysosomal acid glucosylceramidase (Homo sapiens)
RESULT NUMBER: 7.41
--
SMILES REPR: CCCCCCCCCn1cc(CN[C@H]2[C@H](O)[C@@H](O)[C@H](O)[C@@H](O)[C@@H]2O)nn1
MEASURED TARGET: Lysosomal acid glucosylceramidase (Homo sapiens)
RESULT NUMBER: 0.224
--
SMILES REPR: CCCCCCCCCn1cc(CCN[C@H]2[C@H](O)[C@@H](O)[C@H](O)[C@@H](O)[C@@H]2O)nn1
MEASURED TARGET: Lysosomal acid glucosylceramidase (Homo sapiens)
RESULT NUMBER: 44.7

A = O[C@@H]1[C@@H](O)[C@H](O)[C@@H](NCc2cn(CCc3ccccc3)nn2)[C@H](O)[C@H]1O
B = CCCCCCCCCCCn1cc(CCN[C@H]2[C@H](O)[C@@H](O)[C@H](O)[C@@H](O)[C@@H]2O)nn1
C = CCCCCCn1cc(CCCN[C@H]2[C@H](O)[C@@H](O)[C@H](O)[C@@H](O)[C@@H]2O)nn1
D = CCCCCCCCn1cc(CCN[C@H]2[C@H](O)[C@@H](O)[C@H](O)[C@@H](O)[C@@H]2O)nn1
query: Write the entries in order, lowest recorded IC50 first. List the labels, following the order given in the request.
result: A, B, D, C
(A: 10.7 µM, B: 25.7 µM, D: 166 µM, C: 257 µM)

* * *

- MEASURED TARGET: UniProtKB P04062
- Sequence (whole entry): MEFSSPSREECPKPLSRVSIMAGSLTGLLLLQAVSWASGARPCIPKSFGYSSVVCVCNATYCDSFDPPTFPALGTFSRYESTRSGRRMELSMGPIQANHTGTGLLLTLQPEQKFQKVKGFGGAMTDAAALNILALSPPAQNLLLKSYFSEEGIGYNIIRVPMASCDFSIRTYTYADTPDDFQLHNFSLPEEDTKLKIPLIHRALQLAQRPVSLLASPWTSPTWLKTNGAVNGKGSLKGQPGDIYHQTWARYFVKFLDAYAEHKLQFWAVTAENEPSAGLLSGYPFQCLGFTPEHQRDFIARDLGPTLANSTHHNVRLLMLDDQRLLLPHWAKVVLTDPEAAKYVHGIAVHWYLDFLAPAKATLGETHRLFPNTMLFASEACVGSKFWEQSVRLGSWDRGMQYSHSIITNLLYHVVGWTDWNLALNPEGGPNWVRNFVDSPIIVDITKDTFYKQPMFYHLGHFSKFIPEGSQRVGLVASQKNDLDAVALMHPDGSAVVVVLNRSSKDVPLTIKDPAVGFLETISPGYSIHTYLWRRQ
- ASSAY PROCEDURE: Binding affinity to recombinant beta-glucocerebrosidase assessed as enzymatic activity at 150 uM after 40 mins by thermal stabilization assay relative to control
ASSAY METRIC: fold change (FC)

SMILES REPR: CCCCCCCCCn1cc(CCN[C@H]2[C@H](O)[C@@H](O)[C@H](O)[C@@H](O)[C@@H]2O)nn1
fold change (FC): 6.1
//
SMILES REPR: CCCCCCCCCCCCCCn1cc(CN[C@H]2[C@H](O)[C@@H](O)[C@H](O)[C@@H](O)[C@@H]2O)nn1
fold change (FC): 5.91
//
SMILES REPR: CCCCCCCCCCN[C@H]1[C@H](O)[C@@H](O)[C@H](O)[C@@H](O)[C@@H]1O
fold change (FC): 5.85
